Conditions: acidic group
# if value of pKa reaches 9, tag Satisfied; if it stays below, tag Not satisfied

Worked set:
Exercise: Entry Oc1c(Cl)ccc(Cl)c1Cl : is its pKa no less than 9?
Solution: Not satisfied

Exercise: Entry O=C([O-])[C@@H]1CC[C@H](C(=O)O)C1 : is its pKa no less than 9?
Solution: Not satisfied

Exercise: Entry C(C[NH2+]CCc1nnn[nH]1)[NH2+]CCc1nnn[n-]1 : is its pKa no less than 9?
Solution: Not satisfied

Exercise: Entry CCC[NH2+]CC(=O)O : is its pKa no less than 9?
Solution: Not satisfied

Exercise: Entry CC(=N\O)/C(CN(C)C)=N\[O-] : is its pKa no less than 9?
Solution: Satisfied

Exercise: Entry Cc1ccc(Br)c(C(=O)O)c1 : is its pKa no less than 9?
Solution: Not satisfied

Continuing:
Exercise: Entry O=C(Oc1cccc(Cl)c1)C1c2ccccc2-c2ccccc21 : is its pKa no less than 9?
Solution: Satisfied

###

Conditions: acidic group
The entries below come with measured pKa values attached.
// keep it numeric: no unit symbol after the value

// known answers, use as guide
Exercise: Query pKa for O=P(O)(O)C([NH2+]Cc1cc[nH+]cc1)c1ccccc1O (stereo not given)
Solution: 2.28

Exercise: Query pKa for O=C(O)c1cc[nH]c1
Solution: 4.98

Continuing:
Exercise: Query pKa for CS(=O)O
Solution: 2.35

Exercise: Query pKa for O=C(O)c1cc[nH]n1
Solution: 3.84

Exercise: Query pKa for CCOC(=O)N1CCc2noc(O)c2CC1
Solution: 4.7

Exercise: Query pKa for Cc1cc(C)c(O)c(C)c1
Solution: 10.9

Exercise: Query pKa for C[n+]1ccc2ccc(O)cc2c1
Solution: 7.09

Exercise: Query pKa for O=C(CC(=O)C(F)(F)F)c1ccccc1
Solution: 6.3

Exercise: Query pKa for O=C([O-])/C(=N\O)c1ccccc1
Solution: 10.9

Exercise: Query pKa for O=C(O)c1cc(-c2ccccc2)oc(=O)c1
Solution: 3.3

Exercise: Query pKa for O=S(=O)(Nc1ccccn1)c1ccccc1
Solution: 8.2

Exercise: Query pKa for O=C(O)c1cnoc1
Solution: 3.39

Exercise: Query pKa for O=C(O)c1ccc([N+](=O)[O-])o1
Solution: 2.06

Exercise: Query pKa for O=Cc1ccc(O)c(O)c1
Solution: 7.45

Exercise: Query pKa for CS(=O)(=O)Nc1ccc(CC([NH3+])C(=O)O)cc1 (stereo not given)
Solution: 3.15

Exercise: Query pKa for Cc1ccc(C)c(C(=O)C(=O)O)c1
Solution: 1.45

Exercise: Query pKa for CS(=O)(=O)c1ccc(NS(=O)(=O)C(F)(F)F)cc1
Solution: 2.84

Exercise: Query pKa for COc1cccc(C(=O)O)c1
Solution: 4.06

Exercise: Query pKa for Oc1cccc(-c2ccccc2)c1
Solution: 9.59

Exercise: Query pKa for O=[N+]([O-])c1cc(Cl)ccc1[Se]O
Solution: 10.2

Exercise: Query pKa for O=C(O)[C@@H]1CCCN1C(=O)[C@@H]1CCC[NH2+]1
Solution: 3.16

Exercise: Query pKa for [NH3+]CCCCCCCCC(=O)O
Solution: 4.53

Exercise: Query pKa for CC(C(=O)O)c1ccc(-c2ccccc2)c(F)c1 (stereo not given)
Solution: 4.22

Exercise: Query pKa for Cc1cc(/N=N/c2ccc(S(N)(=O)=O)cc2)cc(C(=O)O)c1O
Solution: 2.25

Hey, just so you know, these numbers are from the pKa sets of Baltruschat and Czodrowski (2020).
